- measured_on: recombinant human CYP17 enzyme (Homo sapiens (Human), UniProt P05093)
- Sequence (P05093 whole entry): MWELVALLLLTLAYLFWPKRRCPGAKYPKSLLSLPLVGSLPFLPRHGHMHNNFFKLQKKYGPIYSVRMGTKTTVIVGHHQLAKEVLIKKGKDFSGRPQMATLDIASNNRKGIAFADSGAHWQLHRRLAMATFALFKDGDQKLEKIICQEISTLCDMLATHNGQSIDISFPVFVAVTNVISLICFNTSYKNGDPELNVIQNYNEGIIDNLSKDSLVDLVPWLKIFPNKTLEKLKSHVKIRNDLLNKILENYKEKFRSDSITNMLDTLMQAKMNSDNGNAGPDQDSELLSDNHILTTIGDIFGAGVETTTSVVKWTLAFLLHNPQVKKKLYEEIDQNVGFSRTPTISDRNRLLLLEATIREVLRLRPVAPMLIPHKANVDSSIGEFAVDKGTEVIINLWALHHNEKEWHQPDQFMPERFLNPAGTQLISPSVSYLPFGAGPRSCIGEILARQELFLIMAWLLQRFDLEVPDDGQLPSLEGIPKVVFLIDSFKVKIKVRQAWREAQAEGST
- protocol_details: Cytochrome P450, 17-20 lyase (CYP17-lyase) assay, tritiated acetic acid release from 17-α-hydroxy pregnenolone [21-3H]
- Type: biochemical
- condition_details: human CYP17, substrate 0.25 μM; read-out: Lyase IC 50 nM Human/Rat (Human)
IC50 vs 100 nM: less than gives 1; not less than gives -1.

See these solved cases before continuing.
1) Cc1ccncc1N1CCN(c2ccc3c(=O)[nH][nH]c3c2)C1=O [Example 135A]: 1
2) O=C1N(c2ccc3ncsc3c2)CCN1c1cnccc1C(F)(F)F [Example 128A]: 1

Below: the item to evaluate.
Lab log: compare recorded IC50 with 100 nM; is it strictly lower for Cc1ccncc1N1CCN(c2ccc(-c3ccc(F)cc3)cc2)C1=O [Example 87A] ?
-1

* * *

- measured_on: recombinant human CYP17 enzyme (Homo sapiens (Human))
- protocol_details: Cytochrome P450, 17-20 lyase (CYP17-lyase) assay, tritiated acetic acid release from 17-α-hydroxy pregnenolone [21-3H]
- Assay type: biochemical
- condition_details: human CYP17, substrate 0.25 μM; read-out: Lyase IC 50 nM Human/Rat (Human)
measurement_kind: IC50 (nM)
Enter your answer as a number in nM; do not include the unit.

// below: answered molecules
1. Cc1ccncc1N1CCN(c2ccc3c(c2)C(C)(C)C(=O)N3CO)C1=O [Example 147A]: 346
2. O=C1N(c2cccnc2)CCN1c1ccc2ccccc2c1: 34
3. Cc1ccncc1N1CCN(c2ccc(F)cc2)C1=O [Example 18A]: 76
4. Cc1ccncc1N1CCN(c2ccc3c(cnn3C)c2)C1=O [Example 114A]: 24

// sample CN1CCC[C@H]1COc1ccncc1N1CCN(c2ccc3ncsc3c2)C1=O (stereo in doubt) [Example 181A] , its IC50 was 3060

Input Cc1ccncc1N1C(=O)N(c2ccc3ncsc3c2)C(C)C1C (stereo not shown) [Example 175A] . Output IC50: 85

Sure, the documented IC50 for CC(O)c1ccncc1N1CCN(c2ccc3ncsc3c2)C1=O (stereo not shown) [Example 158A] is 38

* * *

- measured_on: rat CYP17 lyase (Rattus norvegicus (Rat))
- Sequence (P11715 whole entry): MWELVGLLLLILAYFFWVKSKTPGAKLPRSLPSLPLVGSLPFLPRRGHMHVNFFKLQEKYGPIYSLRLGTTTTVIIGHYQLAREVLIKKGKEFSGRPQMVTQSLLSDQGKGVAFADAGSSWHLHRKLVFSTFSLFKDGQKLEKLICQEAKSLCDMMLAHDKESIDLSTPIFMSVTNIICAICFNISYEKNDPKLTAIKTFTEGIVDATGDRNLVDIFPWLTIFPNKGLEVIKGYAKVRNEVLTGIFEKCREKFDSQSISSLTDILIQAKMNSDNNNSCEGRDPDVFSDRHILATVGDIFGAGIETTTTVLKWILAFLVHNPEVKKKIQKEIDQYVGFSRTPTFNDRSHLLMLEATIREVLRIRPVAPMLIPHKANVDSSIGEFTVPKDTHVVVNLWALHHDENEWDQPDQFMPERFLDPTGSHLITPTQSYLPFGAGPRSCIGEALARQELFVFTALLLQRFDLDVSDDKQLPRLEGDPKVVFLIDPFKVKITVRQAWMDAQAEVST
- protocol_details: rat CYP 17 Lyase model, rat testes microsomes as the source
- Type: biochemical
- condition_details: rat testes microsomes, substrate 0.5 μM; read-out: Lyase IC 50 nM Human/Rat (Rat)
measurement_kind: IC50 (nM)
Expressed in nM, but write only the number.

Sample answers from the record:
1. Cc1c(N2CCN(c3cccnc3)C2=O)sc2ccc(F)cc12: 157
2. Cc1cc(Cl)nc2ccc(N3CCN(c4cccnc4)C3=O)cc12 [Example 11A]: 97
3. Cc1ccncc1N1CCN(c2cccc(C(F)(F)F)c2)C1=O [Example 70A]: 2
4. Cc1ccncc1N1CCN(c2ccc3c(C)n[nH]c3c2)C1=O [Example 102A]: 5

# ---- query molecule ----
Sample COc1ccncc1N1CCN(c2ccc3ncsc3c2)C1=O [Example 124A] ; IC50 observed: 12

* * *

Measured IC50 of individual entries
- measured_on: recombinant human CYP17 enzyme (Homo sapiens (Human))
- protocol_details: Cytochrome P450, 17-20 lyase (CYP17-lyase) assay, tritiated acetic acid release from 17-α-hydroxy pregnenolone [21-3H]
- Format: biochemical
- condition_details: human CYP17, substrate 0.25 μM; read-out: Lyase IC 50 nM Human/Rat (Human)
Enter your answer as a number in nM; do not include the unit.

1. Cc1ccncc1N1CCN(c2ccc3[nH]cnc3c2)C1=O [Example 108A]: 363

// returns IC50 for Cc1ccncc1N1CCN(c2ccc3c(N)nn(C)c3c2)C1=O [Example 143A] with recombinant human CYP17 enzyme (Homo sapiens (Human)); value = 116

Lab note: compound Cc1cc(N2CCN(c3cnccc3C)C2=O)cs1 [Example 92B] tested on recombinant human CYP17 enzyme (Homo sapiens (Human)); recorded IC50 was 12
